src = the nanobody polyreactivity screen of Harvey et al. (2022)

# assay-explanation: yeast display, Sf9 membrane polyspecificity reagent, FACS + sequencing; frameworks hold sequencing errors
measure-name: polyreactivity (PSR sort gate)

| sequence | meas-value |
| --- | --- |
| QVQLVESGGGVVQAGGSLRLSCAASGITFNGNAMGWYRQAPGKERELVATISRSDGRTYYADSVKGRFTISRDNAKNTDYFQMNSLKPEDTAVYYCAAYTTRPYWGQGTQVTVSS | high polyreactivity |
| QVQLVESGGGLVQAGGSLRLSCAASGRTFFDYAMGWYRQAPGKEWELVAAITASGSSTYYADSVKGRFTISRDNAKNTVYLQMNSLKPDDTAVYYCAAGASANKKITSYDYWGQGTQVTVSS | low polyreactivity |
| QVQLEESGGGLVQAGGSLRLSCAASGSIFHYYTMGWYRQAPGKERELVAAITSSGGSTYYADSVKGRFTISRDNAKNTVYLQMNSLKPEDTAVYYCNKVRYRGYLYVPIYVGYNYWGQGTQVTVSS | high polyreactivity |
| QVQLVESGGGLVQAGGSLRLSCAASGSIFIINAMGWYIQAPGKERELVAAINNGVNTYYADSVKGRFTISRDNAKNTVYLQMNSLKPEDTAVYYCAADYGDPRVNEYDYWGQGTQVTVSS | low polyreactivity |
| QVQLVESGGGLVQAGGSLRLSCAASGRTFAPNAMRWSRQAPGKERELVARITWSGTDTYYADSVKGRFTISRDNAKNTVYLQMNSLKPEDTAVYYCAADARYSRRYYYWGQGTQVTVSS | low polyreactivity |

---

# assay-explanation: yeast display, Sf9 membrane polyspecificity reagent, FACS + sequencing; frameworks hold sequencing errors
measure-name: polyreactivity (PSR sort gate)

| sequence | measure-name | meas-value |
| --- | --- | --- |
| QVHLVESGGGLVQAGGSLRLSCAASGSTFGYYAMGWYRQAPGKERELVAAIRYSGGTTYYADSVKGRFTISRDNAKNTVYLQMNSLKPEDTAVYYCAAVYTSGYYYWGQGTQVTVSS | polyreactivity (PSR sort gate) | high polyreactivity |
| QVQLVESGGGLVQAGGSLRLSCAASGSTSSYNAMGWYRQAPGKERELVAAINSGDNTYYADSVKGRFTISRDNAKNTVYLQMNSLKPDDTAVYYCNKVTRNFNYDYWGQGTQVTVSS | polyreactivity (PSR sort gate) | low polyreactivity |
| QVQLVESGGGLVQAGGSLRLRCAASGFTFTKNAIGWYRQAPGKERELVAAITRRGSSTYYADSVKGRFTISRDNAKNTVYIQMNSLKPEDTAVYYCNADYETISGDYWGQGTQVTVSS | polyreactivity (PSR sort gate) | high polyreactivity |
| QVQLVESGGGLVQAGGSLRLSCAASGLTFYVNARGWYRQAPGKERELVATISGSGSTNYADSVKGRFTISRDNAKNTVYLQMNSLKPEDTAVYDCNAGWAQDPSNYWGQGTQVTVSS | polyreactivity (PSR sort gate) | high polyreactivity |
| QVQLVESGGGLVQAGGSLRLSCAASGSISYLYAMGWYRQAPGKERELVAAISRSGASTYYADSVKGRFTISRDNAKNTVYLQMNSLKPEDTAVYYCAAYKIWGRVRYDYWGQGTQVTVSS | polyreactivity (PSR sort gate) | low polyreactivity |

---

# assay-explanation: yeast display, Sf9 membrane polyspecificity reagent, FACS + sequencing; frameworks hold sequencing errors

| sequence | polyreactivity (PSR sort gate) |
| --- | --- |
| QVQLVESGGGLVQAGGSLRLSCAASGIIFIGNAMGWYRQAPGKERELVAAITYTGGSTYYADSVKGRFTISRDNAKNTVYLQMNSLKPEDTAVYYCAVDRTHLEDDYWGQGTQVTVSS | low polyreactivity |
| QVQLVESGGGLVQAGGSLLLSCAASASTISYKAMGWYRHAPGQETELVAAIDRSVSTNYADSVKGRFTISRDNAKNTVYLQMNSLKPEDTAVYYCNARHPTDDIVIYDYWGQGTQVTVSS | low polyreactivity |
| QVQLVDSGGGLVQAGGSLRLSCAASGSIYGFYAMGWYRQAPGKERELVATIRTSGGNTYYADSVKGRFTISRDNAKNTVYLQLKSMKPEDTAVYYCAAAGYLYSGDVHYLYTYEYWGQRTQVTVSS | low polyreactivity |
